FYI, the data here is from ChEMBL document CHEMBL3608267.

method summary: Toxicity against mouse Hepa-1c1c7 cells assessed as inhibition of cell proliferation
Assay type: cell-based
IC50 reference
quantity measured: IC50 (µM)

> print(dat)
                                   molecule  display.unit  inequality.sign  reading
1  CCCC(O)C#CC#CC(O)C1CCCCC1 (stereo not drawn)            µM                >       50
2  CCCCCCCCCC(O)C#CC#CC(O)CC(C)C (stereo not drawn)            µM                >       50
3        CCCC(O)C#CC#CCO (stereo not drawn)            µM                >       50
4   C[S+]([O-])CCCCN=C=S (stereo not drawn)            µM                =       11
5  CCCCCCCCCC(O)C#CC#CC(O)CCC (stereo not drawn)            µM                =       30
6  CCCCCCCCCC(O)C#CC#CC(O)CCCCC (stereo not drawn)            µM                =       12
7  CCCCCCCCCC(O)C#CC#CC(O)C1CCCCC1 (stereo not drawn)            µM                =       44
8  CCCCCC(O)C#CC#CC(O)CCCCC (mixture of isomers)            µM                >       50

====

pIC50 reference
method summary: Toxicity against mouse Hepa-1c1c7 cells assessed as inhibition of cell proliferation
Assay type: cell-based
pIC50: −log10 of the molar value.
quantity measured: pIC50

> print(dat)
                                    molecule  inequality.sign  reading
 1         CCCCC[C@@H](O)C#CC#C[C@H](O)CCCCC                =     4.92
 2  CCCCCCCCCC(O)C#CC#CC(O)CCCCCCCCC (stereo not drawn)                =     4.59
 3  OC(C#CC#CC(O)C1CCCCC1)C1CCCCC1 (stereo not drawn)                <     4.30
 4               CCCCCC(O)C#CC#CCO (racemic)                <     4.30
 5  C=CCCCCC/C=C\[C@@H](O)C#CC#C[C@@H](O)[C@H](C)O                <     4.30
 6  CCCCCC(O)C#CC#CC(O)C1CCCCC1 (mixture of isomers)                <     4.30
 7  CCCCCC(O)C#CC#CC(O)CC(C)C (stereo not drawn)                =     4.39
 8         CCCCC[C@H](O)C#CC#C[C@@H](O)CCCCC                =     4.33
 9  CC(C)CC(O)C#CC#CC(O)C1CCCCC1 (stereo not drawn)                <     4.30
10                     CCCCC[C@H](O)C#CC#CCO                <     4.00
11          CCCCC[C@H](O)C#CC#C[C@H](O)CCCCC                =     4.17
12                    CCCCC[C@@H](O)C#CC#CCO                <     4.00
13  CCCCCC(O)C#CC#CC(O)CCC (stereo not drawn)                =     4.72

====

CD reference
target under test: NAD(P)H dehydrogenase [quinone] 1 (Mus musculus)
method summary: Induction of NQO1 in mouse Hepa-1c1c7 cells assessed as drug concentration required to double induction by quinone reductase assay
Format: cell-based
quantity measured: CD (µM)

> print(dat)
                                    compound  quantity.measured  reading
 1  OC(C#CC#CC(O)C1CCCCC1)C1CCCCC1 (stereo unspecified)                 CD      8.4
 2  C=CCCCCC/C=C\[C@@H](O)C#CC#C[C@@H](O)[C@H](C)O                 CD      8.2
 3                    CCCCC[C@@H](O)C#CC#CCO                 CD      2.3
 4               CCCCCC(O)C#CC#CCO (racemic)                 CD      4.7
 5  CCCCCCCCCC(O)C#CC#CC(O)C1CCCCC1 (stereo unspecified)                 CD       11
 6  CCCCCC(O)C#CC#CC(O)CC(C)C (stereo unspecified)                 CD      1.3
 7                     CCCCC[C@H](O)C#CC#CCO                 CD      3.2
 8         CCCCC[C@H](O)C#CC#C[C@@H](O)CCCCC                 CD      2.6
 9  CCCC(O)C#CC#CC(O)C1CCCCC1 (stereo unspecified)                 CD      6.2
10         CCCCC[C@@H](O)C#CC#C[C@H](O)CCCCC                 CD      0.6
11  CCCCCC(O)C#CC#CC(O)CCC (stereo unspecified)                 CD      0.8
12  CC(C)CC(O)C#CC#CC(O)C1CCCCC1 (stereo unspecified)                 CD      5.6
13  CCCCCCCCCC(O)C#CC#CC(O)CCC (stereo unspecified)                 CD      4.2
14          CCCCC[C@H](O)C#CC#C[C@H](O)CCCCC                 CD      4.7
15  CCCCCCCCCC(O)C#CC#CC(O)CCCCCCCCC (stereo unspecified)                 CD       26
16  CCCCCC(O)C#CC#CC(O)C1CCCCC1 (mixture of isomers)                 CD      3.2
17  CCCCCCCCCC(O)C#CC#CC(O)CCCCC (stereo unspecified)                 CD      2.6
18  CCCCCC(O)C#CC#CC(O)CCCCC (mixture of isomers)                 CD      3.1
19  C[S+]([O-])CCCCN=C=S (stereo unspecified)                 CD      0.4
20  CCCCCCCCCC(O)C#CC#CC(O)CC(C)C (stereo unspecified)                 CD       10
21      CCCC(O)C#CC#CCO (stereo unspecified)                 CD        6
